Protein target, amino acids: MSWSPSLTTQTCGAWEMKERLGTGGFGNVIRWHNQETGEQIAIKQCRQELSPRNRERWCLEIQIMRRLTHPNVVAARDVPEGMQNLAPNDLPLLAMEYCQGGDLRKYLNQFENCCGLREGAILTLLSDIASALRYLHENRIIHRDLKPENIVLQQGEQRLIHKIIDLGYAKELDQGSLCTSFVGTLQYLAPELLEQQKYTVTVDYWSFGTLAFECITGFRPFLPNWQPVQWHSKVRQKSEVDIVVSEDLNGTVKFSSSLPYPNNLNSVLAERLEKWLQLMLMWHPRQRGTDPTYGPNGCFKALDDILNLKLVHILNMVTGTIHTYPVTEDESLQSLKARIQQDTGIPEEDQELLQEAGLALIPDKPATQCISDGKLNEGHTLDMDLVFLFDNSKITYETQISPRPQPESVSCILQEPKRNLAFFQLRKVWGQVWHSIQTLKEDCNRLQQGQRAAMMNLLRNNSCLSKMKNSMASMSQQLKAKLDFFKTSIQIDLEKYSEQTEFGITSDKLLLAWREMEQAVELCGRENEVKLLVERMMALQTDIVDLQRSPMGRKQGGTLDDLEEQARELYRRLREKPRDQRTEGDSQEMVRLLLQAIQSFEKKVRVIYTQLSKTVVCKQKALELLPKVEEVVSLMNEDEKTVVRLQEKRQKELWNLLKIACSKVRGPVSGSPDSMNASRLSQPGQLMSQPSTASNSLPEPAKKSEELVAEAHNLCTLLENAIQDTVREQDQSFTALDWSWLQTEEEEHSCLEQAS
pIC50: −log10 of the molar value. Counter-ions that a name gives are not always drawn.
ASSAY METRIC: pIC50

{"columns": ["MOLECULE", "ASSAY METRIC", "RESULT NUMBER"],
 "data": [
  ["CN1CCN(CCCNc2ncc(Cl)c(-c3cc4c(C(=O)NC5CC5)cccc4s3)n2)CC1 [Example 20, tri-hydrochloride]", "pIC50", 7.34]
]}

Reference source: patent US7547691B2
